- assay: Metabolic stability in rat liver microsomes assessed as half life
- Format: ADME, Microsome

| structure.notation | half-life |
| --- | --- |
| CC(C)n1nc2c(c1-c1ccc(F)cc1)CCNCC2 | > 60 min |

----------
- assay: Efflux ratio of apparent permeability in human Caco2 cells
- Format: ADME, cell-based
- measurement.conditions: Caco-2

| structure.notation | efflux ratio |
| --- | --- |
| CC(C)n1nc2c(c1-c1ccc(F)cc1)CCNCC2 | 1.3 |

----------
compounds and their reported pKi
- assayed.target: 5-hydroxytryptamine receptor 2B (Homo sapiens, UniProt P41595)
- Sequence (P41595 whole entry): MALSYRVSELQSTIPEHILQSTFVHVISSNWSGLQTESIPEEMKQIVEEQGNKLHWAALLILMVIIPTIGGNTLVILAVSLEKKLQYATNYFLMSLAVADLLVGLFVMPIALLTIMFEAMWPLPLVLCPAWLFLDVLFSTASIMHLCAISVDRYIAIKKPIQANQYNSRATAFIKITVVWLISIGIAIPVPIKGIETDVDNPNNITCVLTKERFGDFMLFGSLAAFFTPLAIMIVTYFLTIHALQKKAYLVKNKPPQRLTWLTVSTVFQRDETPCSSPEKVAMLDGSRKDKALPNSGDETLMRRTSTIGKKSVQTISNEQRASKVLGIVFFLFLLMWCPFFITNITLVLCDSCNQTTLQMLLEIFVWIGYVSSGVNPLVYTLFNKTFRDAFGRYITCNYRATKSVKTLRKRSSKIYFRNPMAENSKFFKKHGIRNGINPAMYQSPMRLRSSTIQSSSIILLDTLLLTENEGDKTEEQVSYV
pKi: −log10 of the molar value.
measurement.name: pKi

| structure.notation | reported.result |
| --- | --- |
| c1ccc(-c2c3c(nn2C2CC2)CCNCC3)cc1 | 7.70 |
| Fc1ccc(-c2c3c(nn2C2CCC2)CCNCC3)cc1 | 8.40 |
| CC(C)n1nc2c(c1-c1ccc(OC(F)(F)F)cc1)CCNCC2 | 7.70 |
| CC(C)n1nc2c(c1-c1ccc(C(F)(F)F)cc1)CCNCC2 | 8.30 |
| CC(C)n1nc2c(c1-c1ccc(F)cc1)CCNCC2 | 7.72 |
| CCn1nc2c(c1-c1ccccc1)CCNCC2 | 7.12 |

----------
- assay: Tmax in rat at 3 mg/kg, sc
- Assay type: ADME, organism-based
- measurement.conditions: in vivo

| structure.notation | unit.label | Tmax |
| --- | --- | --- |
| CC(C)n1nc2c(c1-c1ccc(F)cc1)CCNCC2 | min | 45 |

----------
- assay: Clearance in rat plasma at 10 mg/kg, po
- Type: ADME, organism-based

| structure.notation | CL/F / mL/min |
| --- | --- |
| CC(C)n1nc2c(c1-c1ccc(F)cc1)CCNCC2 | 3.33 |

----------
- assayed.target: Adrenergic receptor alpha-1 (Rattus norvegicus, UniProt P15823+P23944+P43140)
- Sequence (P15823 whole entry): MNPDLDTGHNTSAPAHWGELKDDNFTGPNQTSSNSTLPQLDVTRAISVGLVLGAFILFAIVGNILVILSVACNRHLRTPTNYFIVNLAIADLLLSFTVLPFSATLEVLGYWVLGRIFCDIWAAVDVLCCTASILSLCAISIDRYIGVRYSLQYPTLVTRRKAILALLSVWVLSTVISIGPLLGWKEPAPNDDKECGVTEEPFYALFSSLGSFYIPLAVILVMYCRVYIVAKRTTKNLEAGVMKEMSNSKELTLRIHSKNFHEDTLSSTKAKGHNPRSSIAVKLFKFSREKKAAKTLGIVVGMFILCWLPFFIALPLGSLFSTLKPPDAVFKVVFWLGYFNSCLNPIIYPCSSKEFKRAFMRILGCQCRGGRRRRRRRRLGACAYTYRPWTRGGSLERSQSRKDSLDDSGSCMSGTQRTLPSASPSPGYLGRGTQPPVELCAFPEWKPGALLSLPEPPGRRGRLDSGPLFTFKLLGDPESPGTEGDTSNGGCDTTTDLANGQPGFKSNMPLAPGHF
- Sequence (P23944 whole entry): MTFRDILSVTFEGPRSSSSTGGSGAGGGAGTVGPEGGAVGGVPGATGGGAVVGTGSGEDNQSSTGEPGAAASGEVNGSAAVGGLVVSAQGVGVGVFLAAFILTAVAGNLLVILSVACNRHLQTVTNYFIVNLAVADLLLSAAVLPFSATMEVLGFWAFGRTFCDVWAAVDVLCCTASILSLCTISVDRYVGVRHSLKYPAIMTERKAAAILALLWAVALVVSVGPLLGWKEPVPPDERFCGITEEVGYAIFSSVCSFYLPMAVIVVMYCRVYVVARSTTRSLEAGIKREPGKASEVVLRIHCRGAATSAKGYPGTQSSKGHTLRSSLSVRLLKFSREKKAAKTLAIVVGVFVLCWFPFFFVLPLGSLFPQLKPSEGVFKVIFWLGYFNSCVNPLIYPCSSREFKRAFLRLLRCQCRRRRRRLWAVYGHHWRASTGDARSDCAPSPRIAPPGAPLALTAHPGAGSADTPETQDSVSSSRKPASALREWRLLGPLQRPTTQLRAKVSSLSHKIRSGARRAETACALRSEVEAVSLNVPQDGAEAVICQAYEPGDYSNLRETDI
- Sequence (P43140 whole entry): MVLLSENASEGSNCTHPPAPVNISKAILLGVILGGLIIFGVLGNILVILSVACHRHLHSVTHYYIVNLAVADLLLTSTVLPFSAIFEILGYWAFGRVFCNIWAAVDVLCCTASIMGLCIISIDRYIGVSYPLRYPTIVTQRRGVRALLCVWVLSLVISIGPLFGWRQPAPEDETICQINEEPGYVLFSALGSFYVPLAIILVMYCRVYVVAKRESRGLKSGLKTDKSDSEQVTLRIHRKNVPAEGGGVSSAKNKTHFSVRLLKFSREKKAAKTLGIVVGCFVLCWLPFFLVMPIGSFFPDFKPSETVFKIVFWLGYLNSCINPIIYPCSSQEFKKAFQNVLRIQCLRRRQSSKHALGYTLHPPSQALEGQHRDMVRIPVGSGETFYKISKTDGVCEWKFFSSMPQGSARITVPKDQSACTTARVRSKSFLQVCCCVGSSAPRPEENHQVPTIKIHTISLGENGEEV
- assay: Displacement of […] from alpha1 adrenergic receptor in rat cortex membrane incubated for 60 mins by competitive radioligand binding assay
- Type: cell membranes
The following ranges of Ki define the classes used here: lower segment = under 0.1 µM, middle segment = from 0.1 µM up to 0.5 µM, upper segment = 0.5 µM and over

| structure.notation | assigned.class |
| --- | --- |
| CC(C)n1nc2c(c1-c1ccccc1)CCNCC2 | upper segment |
| CNc1ccc(-c2c3c(nn2C(C)C)CCNCC3)cc1 | lower segment |
| Cc1ccc(-c2c3c(nn2C(C)C)CCNCC3)cc1 | lower segment |
| c1ccc(-c2c3c(nn2C2CC2)CCNCC3)cc1 | upper segment |
| CC(C)n1nc2c(c1-c1ccc(C(F)(F)F)cc1)CCNCC2 | middle segment |
| CC(C)n1nc2c(c1-c1ccc(C#N)cc1)CCNCC2 | middle segment |
| CC(C)n1nc2c(c1-c1ccc(F)cc1)CCNCC2 | middle segment |
| CC(C)n1nc2c(c1-c1ccc(Cl)cc1)CCNCC2 | lower segment |
| c1ccc(-c2c3c(nn2-c2ccccc2)CCNCC3)cc1 | upper segment |
| Fc1ccc(-c2c3c(nn2C2CCC2)CCNCC3)cc1 | middle segment |
